Reference source: patent US12497395B2

Attribute: Kd
biological target: BRD2 (BD1) (Homo sapiens); assay: BROMOscan competitive ligand binding assay, BRD2 (BD1)
Sequence (P25440 74-180 limits assumed): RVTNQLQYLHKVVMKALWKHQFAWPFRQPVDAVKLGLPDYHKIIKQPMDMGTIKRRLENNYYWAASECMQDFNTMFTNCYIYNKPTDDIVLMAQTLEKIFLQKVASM

| SMILES_STRING | Kd |
| --- | --- |
| Cc1cc(-c2ccc3nc(-c4cnn(CC(C)(C)O)c4)nc(N4CCOC[C@@H]4c4ccccc4)c3c2)cn(C)c1=O | < 100 nM |
| Cn1cc(-c2ccc3nc(-c4cnn(CC(C)(C)O)c4)nc(N4CCOC[C@@H]4c4ccccc4)c3c2)c2cc[nH]c2c1=O | < 100 nM |

###

biological target: BRDT (BD2) (Homo sapiens); assay: BROMOscan competitive ligand binding assay, BRDT (BD2)

| MOLECULE | Kd |
| --- | --- |
| Cc1cc(-c2ccc3nc(-c4cnn(CC(C)(C)O)c4)nc(N4CCOC[C@@H]4c4ccccc4)c3c2)cn(C)c1=O [Cpd. 1] | < 100 nM |
| Cn1cc(-c2ccc3nc(-c4cnn(CC(C)(C)O)c4)nc(N4CCOC[C@@H]4c4ccccc4)c3c2)c2cc[nH]c2c1=O [Cpd. 2] | < 100 nM |

###

target: P300 (Homo sapiens); experiment: BROMOscan competitive ligand binding assay, P300
Sequence (Q09472 1049-1156 limits assumed): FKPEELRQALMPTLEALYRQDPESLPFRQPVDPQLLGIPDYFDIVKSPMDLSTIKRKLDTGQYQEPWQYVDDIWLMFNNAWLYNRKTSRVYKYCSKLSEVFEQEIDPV
pKd: −log10 of the molar value.
pKd by entry:
PARAMETER_MEASURED: pKd

| COMPOUND | RESULT |
| --- | --- |
| Cc1cc(-c2ccc3nc(N4CCO[C@H](CO)C4)nc(N4CCOC[C@@H]4c4ccccc4)c3c2)cn(C)c1=O [Cpd. 11] | > 7.00 |
| Cn1cc(-c2ccc3nc(-c4cnn(CC(C)(C)O)c4)nc(N4CCOC[C@@H]4c4ccccc4)c3c2)c2cc[nH]c2c1=O [Cpd. 2] | > 7.00 |
| Cn1cc(-c2ccc3nc(-c4cnn(CC(C)(C)O)c4)nc(N4CCOC[C@@H]4C4CCCCC4)c3c2)c2cc[nH]c2c1=O [Cpd. 14] | 6.30 to 7.00 |
| Cn1cc(-c2ccc3nc(N4CCO[C@H](CO)C4)nc(N4CCOC[C@@H]4c4ccc(F)cc4)c3c2)c2cc[nH]c2c1=O [Cpd. 15] | > 7.00 |
| Cc1cc(-c2ccc3nc(N4CCO[C@H](CO)C4)nc(N4CCOC[C@@H]4C4CCCCC4)c3c2)cn(C)c1=O [Cpd. 10] | 6.30 to 7.00 |
| Cc1cc(-c2ccc3nc(-c4cnn(CC(C)(C)O)c4)nc(N4CCOC[C@@H]4C4CCCCC4)c3c2)cn(C)c1=O [Cpd. 12] | 6.30 to 7.00 |
| Cc1cc(-c2ccc3nc(-c4cnn(CC(C)(C)O)c4)nc(N4CCOC[C@@H]4C4CC4)c3c2)cn(C)c1=O [Cpd. 3] | 6.30 to 7.00 |
| Cn1cc(-c2ccc3nc(N4CCO[C@H](CO)C4)nc(N4CCOC[C@@H]4C4CCCCC4)c3c2)c2cc[nH]c2c1=O [Cpd. 13] | > 7.00 |

###

target: CBP (Homo sapiens, UniProt Q92793); test: BROMOscan competitive ligand binding assay, CBP
Sequence (Q92793 1085-1192 limits assumed): as the sequence (Q09472 1049-1156 limits assumed) above, with S47N, I73V, Y93F, S98A counted along it
pKd: −log10 of the molar value.

| SMILES_STRING | pKd |
| --- | --- |
| Cn1cc(-c2ccc3nc(-c4cnn(CC(C)(C)O)c4)nc(N4CCOC[C@@H]4C4CCCCC4)c3c2)c2cc[nH]c2c1=O | > 7.00 |
| Cc1cc(-c2ccc3nc(-c4cnn(CC(C)(C)O)c4)nc(N4CCOC[C@@H]4c4ccc(F)cc4)c3c2)cn(C)c1=O | > 7.00 |
| Cn1cc(-c2ccc3nc(N4CCO[C@H](CO)C4)nc(N4CCOC[C@@H]4C4CCCCC4)c3c2)c2cc[nH]c2c1=O | > 7.00 |
| Cc1cc(-c2ccc3nc(N4CCO[C@H](CO)C4)nc(N4CCOC[C@@H]4c4ccccc4)c3c2)cn(C)c1=O | > 7.00 |
| Cn1cc(-c2ccc3nc(N4CCO[C@H](CO)C4)nc(N4CCOC[C@@H]4c4ccc(F)cc4)c3c2)c2cc[nH]c2c1=O | > 7.00 |

###

molecular target: BRD4 (BD1, 2) (Homo sapiens, UniProt O60885); test: BROMOscan competitive ligand binding assay, BRD4 (BD1, 2); conditions: Table 3
pKd: −log10 of the molar value.
PARAMETER_MEASURED: pKd

| SMILES_STRING | PARAMETER_MEASURED | RESULT |
| --- | --- | --- |
| Cc1cc(-c2ccc3nc(-c4cnn(CC(C)(C)O)c4)nc(N4CCOC[C@@H]4c4ccccc4)c3c2)cn(C)c1=O | pKd | > 7.00 |
| Cn1cc(-c2ccc3nc(-c4cnn(CC(C)(C)O)c4)nc(N4CCOC[C@@H]4c4ccccc4)c3c2)c2cc[nH]c2c1=O | pKd | > 7.00 |

###

Each entry below lists one item and its recorded pKd value.
biological target: BRD4 (BD1) (Homo sapiens); experiment: BROMOscan competitive ligand binding assay, BRD4 (BD1)
pKd: −log10 of the molar value.

| SMILES_STRING | pKd |
| --- | --- |
| Cc1cc(-c2ccc3nc(-c4cnn(CC(C)(C)O)c4)nc(N4CCOC[C@@H]4c4ccccc4)c3c2)cn(C)c1=O | > 7.00 |
| Cn1cc(-c2ccc3nc(-c4cnn(CC(C)(C)O)c4)nc(N4CCOC[C@@H]4c4ccccc4)c3c2)c2cc[nH]c2c1=O | > 7.00 |

###

target: CBP (Homo sapiens, UniProt Q92793); assay: BROMOscan competitive ligand binding assay, CBP
Kd by entry:
PARAMETER_MEASURED: Kd

| SMILES_STRING | RESULT |
| --- | --- |
| Cc1cc(-c2ccc3nc(-c4cnn(CC(C)(C)O)c4)nc(N4CCOC[C@@H]4c4ccccc4)c3c2)cn(C)c1=O | < 100 nM |
| Cc1cc(-c2ccc3nc(-c4cnn(CC(C)(C)O)c4)nc(N4CCOC[C@@H]4C4CCCCC4)c3c2)cn(C)c1=O | 100 to 500 nM |
| Cn1cc(-c2ccc3nc(-c4cnn(CC(C)(C)O)c4)nc(N4CCOC[C@@H]4c4ccccc4)c3c2)c2cc[nH]c2c1=O | < 100 nM |
| Cn1cc(-c2ccc3nc(-c4cnn(CC(C)(C)O)c4)nc(N4CCOC[C@@H]4C4CC4)c3c2)c2cc[nH]c2c1=O | < 100 nM |
| Cc1cc(-c2ccc3nc(N4CCO[C@H](CO)C4)nc(N4CCOC[C@@H]4C4CCCCC4)c3c2)cn(C)c1=O | 100 to 500 nM |
| Cn1cc(-c2ccc3nc(-c4cnn(CC(C)(C)O)c4)nc(N4CCOC[C@@H]4c4ccc(F)cc4)c3c2)c2cc[nH]c2c1=O | < 100 nM |
| Cc1cc(-c2ccc3nc(-c4cnn(CC(C)(C)O)c4)nc(N4CCOC[C@@H]4C4CC4)c3c2)cn(C)c1=O | 100 to 500 nM |

###

target: BRD3 (BD1, 2) (Homo sapiens); assay: BROMOscan competitive ligand binding assay, BRD3 (BD1, 2)
Sequence (Q15059 24-416 limits assumed): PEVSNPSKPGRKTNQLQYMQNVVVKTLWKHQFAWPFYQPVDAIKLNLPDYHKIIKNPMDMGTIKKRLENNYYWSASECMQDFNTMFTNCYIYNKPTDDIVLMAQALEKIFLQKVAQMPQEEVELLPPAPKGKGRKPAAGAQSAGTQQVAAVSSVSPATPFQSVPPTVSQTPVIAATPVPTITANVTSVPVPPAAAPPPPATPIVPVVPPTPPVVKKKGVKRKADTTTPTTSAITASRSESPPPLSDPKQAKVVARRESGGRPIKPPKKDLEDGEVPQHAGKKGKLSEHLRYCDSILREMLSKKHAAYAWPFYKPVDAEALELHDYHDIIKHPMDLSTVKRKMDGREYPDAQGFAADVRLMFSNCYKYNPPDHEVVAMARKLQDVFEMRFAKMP
Each entry below lists one item and its recorded Kd value.

| COMPOUND | Kd |
| --- | --- |
| Cn1cc(-c2ccc3nc(-c4cnn(CC(C)(C)O)c4)nc(N4CCOC[C@@H]4c4ccccc4)c3c2)c2cc[nH]c2c1=O [Cpd. 2] | < 100 nM |
| Cc1cc(-c2ccc3nc(-c4cnn(CC(C)(C)O)c4)nc(N4CCOC[C@@H]4c4ccccc4)c3c2)cn(C)c1=O [Cpd. 1] | < 100 nM |

###

molecular target: BRD3 (BD1) (Homo sapiens); test: BROMOscan competitive ligand binding assay, BRD3 (BD1)
pKd: −log10 of the molar value.
compounds and their reported pKd
PARAMETER_MEASURED: pKd

| COMPOUND | PARAMETER_MEASURED | RESULT |
| --- | --- | --- |
| Cc1cc(-c2ccc3nc(-c4cnn(CC(C)(C)O)c4)nc(N4CCOC[C@@H]4c4ccccc4)c3c2)cn(C)c1=O [Cpd. 1] | pKd | > 7.00 |
| Cn1cc(-c2ccc3nc(-c4cnn(CC(C)(C)O)c4)nc(N4CCOC[C@@H]4c4ccccc4)c3c2)c2cc[nH]c2c1=O [Cpd. 2] | pKd | > 7.00 |

###

molecular target: BRD2 (BD1, 2) (Homo sapiens, UniProt P25440); experiment: BROMOscan competitive ligand binding assay, BRD2 (BD1, 2)
Sequence (P25440 71-455 limits assumed): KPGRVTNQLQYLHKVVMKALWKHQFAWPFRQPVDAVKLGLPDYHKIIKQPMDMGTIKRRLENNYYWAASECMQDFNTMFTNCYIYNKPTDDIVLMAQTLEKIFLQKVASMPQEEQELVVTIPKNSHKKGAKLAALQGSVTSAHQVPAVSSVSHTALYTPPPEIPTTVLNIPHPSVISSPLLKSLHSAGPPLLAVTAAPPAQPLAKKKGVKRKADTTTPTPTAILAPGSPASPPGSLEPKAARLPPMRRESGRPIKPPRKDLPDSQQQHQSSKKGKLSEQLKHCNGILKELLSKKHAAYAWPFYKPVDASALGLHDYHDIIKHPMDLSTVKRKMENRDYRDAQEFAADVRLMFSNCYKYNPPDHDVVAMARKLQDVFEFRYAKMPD
Kd values for the compounds below.

| COMPOUND | Kd |
| --- | --- |
| Cn1cc(-c2ccc3nc(-c4cnn(CC(C)(C)O)c4)nc(N4CCOC[C@@H]4c4ccccc4)c3c2)c2cc[nH]c2c1=O [Cpd. 2] | < 100 nM |
| Cc1cc(-c2ccc3nc(-c4cnn(CC(C)(C)O)c4)nc(N4CCOC[C@@H]4c4ccccc4)c3c2)cn(C)c1=O [Cpd. 1] | < 100 nM |
